# Measured Target: T1, human MSLN-R3 protein (human, UniProt Q13421 487-598)
# T1 construct: also called hMSLN-R3
# T1 sequence (Q13421 495-606, form in doubt): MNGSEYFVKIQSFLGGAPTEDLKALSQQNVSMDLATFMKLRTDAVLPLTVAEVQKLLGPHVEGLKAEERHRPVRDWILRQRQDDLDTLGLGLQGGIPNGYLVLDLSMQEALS
# Protocol Text: ELISA on coated antigen, antibody 0.1 nM
Test Readout: OD450

{"Binder": "F7.33.24-H8 (scFv, not shown: small tags and cut ends, also called S009-F7.33.24 humanized antibody VH2 + VL2) scFv: EVQLVQSGAEVKKPGASVKVSCKASGYTFTSYWMHWVRQAPGQGLEWMGNVNPSNGGSNYNEKFKNRVTITVDKSASTAYMELSSLRSEDTAVYYCAPHYIGSRPGFAYWGQGTLVTVSSGGGGSGGGGSGGGGSDIVMTQTPLSLSVTPGQPASISCKASQNVGTNIAWYLQKPGQSPQALIYSASYRYSGVPDRFSGSGSGTDFTLKISRVEAEDVGVYYCQQYNSYPLTFGGGTKVEIK", "Result": "0.09 OD450"}
{"Binder": "F7.33.24-H1 (scFv, not shown: small tags and cut ends, also called S009-F7.33.24 humanized antibody VH1 + VL1) scFv: EVQLVQSGAEVKKPGASVKVSCKASGYTFTSYWMHWVRQAPGQRLEWMGNVNPSNGGSNYNEKFKNRVTITVDKSASTAYMELSSLRSEDTAVYYCAPHYIGSRPGFAYWGQGTLVTVSSGGGGSGGGGSGGGGSDIVMTQSPDSLAVSLGERATINCKASQNVGTNIAWYQQKPGQSPKALIYSASYRYSGVPDRFSGSGSGTDFTLTISSLQAEDVAVYYCQQYNSYPLTFGGGTKVEIK", "Result": "0.08 OD450"}
